# Test system: Strept. faecium (D)
# assay_explanation: Agar dilution test according to Lorian (antibacterial activity)
# Assay type: cell-based
# run_parameters: Müller Hinton Agar, 16 to 18 h at 37 C; lowest concentration fully preventing growth
Consider the following molecules; for each one, report its MIC.

Tell me the measured MIC of COC1CC(CC2CCC(C)C(C(C)C(=O)O)O2)OC2(OC(C)(C3CCC(C)(C4OC(C5OC(O)(COS(=O)(=O)O)C(C)CC5C)CC4C)O3)CC2C)C1C (stereo not drawn) , please.
3,13 µg/ml

Tell me the measured MIC of COC1CC(CC2CCC(C)C(C(C)C(=O)[O-])O2)OC2(OC(C)(C3CCC(C)(C4OC(C5OC(O)(CO)C(C)CC5C)CC4C)O3)CC2C)C1C.[K+] (stereo not drawn) , please.
0,098 µg/ml

Tell me the measured MIC of COC1CC(CC2CCC(C)C(C(C)C(=O)O)O2)OC2(OC(C)(C3CCC(C)(C4OC(C5OC(O)(COC(=O)Cc6ccccc6)C(C)CC5C)CC4C)O3)CC2C)C1C (stereo not drawn) , please.
0,391 µg/ml
